The values you see were collected from a melting point compilation (Tetko et al.).

| smilesRepr | melting point |
| --- | --- |
| O=Cc1ccc(N2CCNCC2)s1 | 59 to 63 °C |
| O=C(O)Cc1cc2ccccc2o1 | 89 to 91 °C |
| O=C(O)CCCNc1nc(-c2ccccc2)cs1 | 155 to 157 °C |
| COc1ccc(C)cc1NC(=O)CNC(=O)CCl | 121 to 123 °C |
| O=C(CO)NCc1ccccc1 | 101 to 103 °C |
| O=C(O)c1c[nH]c(C(=O)N2CCCC2)c1 | 264 to 266 °C |
| Nc1cc2c(cc1C(=O)O)OCCCO2 | 160 to 162 °C |
